assay: PU-H71 tumor concentration by LC-MS/MS; assay type: in vivo, mice; settings: mouse, tumor (MDA-MB-468); 5 mg/kg 3×week, 24 h after last dose; read-out: actual tumor concentration by LC-MS/MS
Parameter measured: concentration at 24 h (nM)
Just the number please, in nM, no unit attached.

Incoming: Give the reported value of concentration at 24 h for this record: CC(C)NCCCn1c(Sc2cc3c(cc2I)OCO3)nc2c(N)ncnc21
Outgoing: 520

====

system: HSP90; assay: concomitant HSP90-streptavidin binding in live K562 cells; format: cell-based; settings: live cells, 100 μM, 4 h
Parameter measured: HSP90-streptavidin binding with K562 cells

Compound	Reported measurement
CC(C)N(CCCn1c(Sc2cc3c(cc2I)OCO3)nc2c(N)ncnc21)C(=O)CCOCCOCCOCCOCCNC(=O)CCCC[C@@H]1SC[C@@H]2NC(=O)N[C@@H]21 [PU-H71-biotin9]	Yes
CC(C)N(CCCn1c(Sc2cc3c(cc2I)OCO3)nc2c(N)ncnc21)C(=O)CCCCCNC(=O)CCCCCNC(=O)CCCC[C@@H]1SC[C@@H]2NC(=O)N[C@@H]21 [PU-H71-biotin8]	Yes
Nc1ncnc2c1nc(Sc1cc3c(cc1I)OCO3)n2CCCNC(=O)CCCCCNC(=O)CCCC[C@@H]1SC[C@@H]2NC(=O)N[C@@H]21 [PU-H71-biotin4]	No
